Biological target: HLA-B*51:01
Assay: IEDB peptide-MHC binding, purified MHC/competitive/radioactivity; filed as Kd, often an IC50 or EC50 that approximates it; bounds were set here for any values at or beyond the usual limits of such assays
Details: source organism: Mammarenavirus guanaritoense
readoutName: pKd
Schema: pKd number; meaning minus log10 of the concentration expressed in molar units.

Tested system HLA-B*51:01; pKd recorded for KPINLSNSV was 5.67

----------
Biological target: HLA-B*40:13
Experiment: IEDB peptide-MHC binding, purified MHC/competitive/fluorescence; filed as Kd, often an IC50 or EC50 that approximates it; bounds were set here for any values at or beyond the usual limits of such assays
Conditions: source organism: Escherichia coli K-12
pKd: −log10 of the molar value.
readoutName: pKd

What the record says about RQWGMGFLL : pKd is ≥ 9.00

----------
Biological target: HLA-A*30:02
Experiment: IEDB peptide-MHC binding, purified MHC/competitive/fluorescence; filed as Kd, often an IC50 or EC50 that approximates it; bounds were set here for any values at or beyond the usual limits of such assays
Details: source organism: Shigella flexneri 5 str. 8401
pKd: −log10 of the molar value.
readoutName: pKd

Record summary for FGALFMWLL : reported pKd = ≤ 5.30

----------
Biological target: HLA-B*40:01
Assay: IEDB peptide-MHC binding, purified MHC/competitive/fluorescence; filed as Kd, often an IC50 or EC50 that approximates it; bounds were set here for any values at or beyond the usual limits of such assays
Details: source organism: Vibrio cholerae 2740-80
pKd: −log10 of the molar value.
readoutName: pKd

Lab entry: HLA-B*40:01 assay, sequence MGMEQTMSV , pKd = ≤ 5.30

----------
Biological target: HLA-B*08:02
Test: IEDB peptide-MHC binding, purified MHC/direct/fluorescence; filed as Kd, often an IC50 or EC50 that approximates it; bounds were set here for any values at or beyond the usual limits of such assays
Settings: source organism: Influenza A virus(A/swine/Henan/3/2004(H9N2))
readoutName: Kd

The sequence listed as RRVRDNMTK shows Kd equal to ≥ 20 µM

----------
Target: HLA-B*15:17
Assay: IEDB peptide-MHC binding, purified MHC/competitive/fluorescence; filed as Kd, often an IC50 or EC50 that approximates it; bounds were set here for any values at or beyond the usual limits of such assays
Details: source organism: Zaire ebolavirus
pKd: −log10 of the molar value.
readoutName: pKd

DLEKYNLAF : ≤ 4.70
SMHYKLDEV : ≤ 4.70
ILNRKAIDF : ≤ 4.70

For the next question, use this sequence.
Per the record, LESLTDREL has pKd of ≤ 4.70

----------
Target: HLA-A*69:01
Assay: IEDB peptide-MHC binding, purified MHC/direct/fluorescence; filed as Kd, often an IC50 or EC50 that approximates it; bounds were set here for any values at or beyond the usual limits of such assays
Conditions: source organism: Vaccinia virus Copenhagen
readoutName: pKd
Give only the number. pKd is defined as minus log10 of concentration in molar units.

The recorded pKd for entry DLGPAFTEL equals 7.65

----------
As shown below, each of these sequences has a reported Kd value.
Molecular target: HLA-A*02:02
Experiment: IEDB peptide-MHC binding, purified MHC/competitive/radioactivity; filed as Kd, often an IC50 or EC50 that approximates it; bounds were set here for any values at or beyond the usual limits of such assays
Conditions: source organism: Lymphocytic choriomeningitis virus (strain Armstrong)

SCDDVVFGI : 2150 nM

So for AVYNFATCGI , the logged Kd turned out to be 25.3 nM
